Source of measurements: the supplement of paper PMC10567573

B1: ZNF649 (parent)
chain: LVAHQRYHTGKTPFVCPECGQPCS

# Variants of: B1
# Procedure Details: protein stability index of a GFP-peptide fusion (GPS, HEK-293T) (PSI 1-6); higher = more stable;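 further: lentivirally expressed fusions sorted by FACS into six bins by GFP to DsRed ratio, PSI derived from sequencing read proportions per bin multiplied by bin number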
# Condition: c terminus: a fixed tail appended

{"Mutation Notation": "V15Y", "protein stability index": 2.96}
{"Mutation Notation": "C16A", "protein stability index": 2.35}
{"Mutation Notation": "P13G", "protein stability index": 2.94}
{"Mutation Notation": "F14V", "protein stability index": 3.81}
{"Mutation Notation": "Y7P", "protein stability index": 4.04}
{"Mutation Notation": "C16P", "protein stability index": 3.48}
{"Mutation Notation": "K11N", "protein stability index": 3.48}
{"Mutation Notation": "C16T", "protein stability index": 2.27}
{"Mutation Notation": "K11M", "protein stability index": 3.31}
{"Mutation Notation": "C23L", "protein stability index": 2.67}
{"Mutation Notation": "L1R", "protein stability index": 3.63}
